Molecular target: T1, human CD25 on CHO-K1/hCD25 cells (human, UniProt P01589 22-272)
T1 construct: whole, on cells; The construct of the cell line is not described
T1 sequence (looked up): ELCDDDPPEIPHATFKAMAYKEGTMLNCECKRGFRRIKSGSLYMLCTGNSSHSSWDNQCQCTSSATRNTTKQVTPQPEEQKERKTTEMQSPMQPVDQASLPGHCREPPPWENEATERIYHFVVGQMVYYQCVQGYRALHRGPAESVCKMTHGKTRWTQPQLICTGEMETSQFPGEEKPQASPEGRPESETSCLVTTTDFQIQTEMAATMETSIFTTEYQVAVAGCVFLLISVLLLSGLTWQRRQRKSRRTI
Assay: flow cytometry on CHO-K1/hCD25 cells
Give EC50 for every item shown.
Numbers only, in ng/mL.

// below: answered binders
# binder, EC50, ng/mL
records = [
    ("chimeric antibody 2046-24H2L1 (antibody, human IgG1, kappa, V domains shown, Chimeric, human IgG1/kappa; also called 2046-24ix) VH: DVQLQESGPGLVKPSQSLSLTCTVTGYSITSDYAWNWIRQFPGNKLEWMGYISYGGTTIYNPSLKSRISITRDTSKNQFFLQLNSVTTEDTATYYCARWLLQNYYAMDYWGQGTSVTVSS VL: DVVMTQTPLSLPVSLGDQASISCRSSQSLVHSNGNTYLHWYLQKPGQSPKVLIYKVSNRFSGVPDRFSGSGSGTDFTLKISRVEAEDLGVYFCSQNTHVPLTFGAGTKLELKR", 1.43),
    ("chimeric antibody 2047-3H8L2 (antibody, human IgG1, kappa, V domains shown, Chimeric, human IgG1/kappa; also called 2047-3ix) VH: QVQLKQSGAELVKPGASVKMSCKTSGYTFTDYVISWVKQRTGQGLEWIGEIYPGSGSTYYNEKFKGKATLTADISSNTAYMQLSSLTSEDSAVYFCASINFDYWGHGTTLTVSS VL: DIVMTQSPATLSVTPGDRVSLSCRASQSISDYLHWYQQKSHESPRLLIKYASQSISGIPSRFSGSGSGSDFTLSINSVEPEDVGVYYCQNGHSFPYTFGGGTKLEIKR", 1.43),
]

Here is the next item to consider.
For the binder chimeric antibody 2046-2H1L1 (antibody, human IgG1, kappa, V domains shown, Chimeric (murine V, human IgG1/kappa); also called 2046-2ix) VH: DVQLQESGPGLVKPSQSLSLTCTVTGYSITSDYAWNWIRHFPGNKLEWMGYITYSGSTVYNPSLKSRISITRDTSKNHFFLQLNSVTTEDTATYYCARWLLQIYYAMDYWGQGTSVTVSS VL: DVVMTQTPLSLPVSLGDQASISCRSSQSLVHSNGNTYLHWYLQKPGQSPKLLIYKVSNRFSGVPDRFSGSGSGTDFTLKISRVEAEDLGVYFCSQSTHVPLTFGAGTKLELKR , give its reported EC50.
1.92
